Source listed as PubChem BioAssay (NCATS).

# System: HACAT
# test-summary: qHTS assay to identify novel small-molecules to repurpose for Merkel cell carcinoma treatment (AID 1296009); note: nearly all actives have a fitted effect of over 60% in size
# conditions-used: MCC and control cell lines, CellTiter-Glo viability, 72 h; at 44.8 µM (top of the series) unless noted
Results filed as inconclusive are left out. Activity calls are given as the source filed them. Calls come from the whole dose curve; as a rule, active = well fitted inhibition curve with a large enough effect; inconclusive = small, poorly fitted or top-dose-only effect; inactive = flat fitted curve, though single readings scatter.
measured-endpoint: outcome

>>> observed("COC(=O)C1=COC(OC2OC(CO)C(O)C(O)C2O)C2C(C)C(OC(C)=O)C(OC(=O)c3ccccc3)C12 (configuration not stated)")
"inactive [at 17.4 µM]"
>>> observed("Cc1ccc(COC(=O)N2CC[C@@H](CNc3ncccn3)[C@@H](F)C2)cc1")
"inactive"
>>> observed("OCC1OC(Oc2cc(O)cc(/C=C/c3ccc(OC4OC(CO)C(O)C(O)C4O)cc3O)c2)C(O)C(O)C1O (configuration not stated)")
"inactive [at 17.4 µM]"
>>> observed("O=C(OC(C(F)(F)F)C(F)(F)F)N1CCN(Cc2cccc(Oc3ccccc3)c2)CC1")
"inactive"
>>> observed("C[C@@H]1CCC2C(C)(C)[C@H](O)[C@H](O)C[C@]2(C)[C@@]12Cc1c(O)cc3c(c1O2)CN(CCCC(=O)O)C3=O (some centres not stated)")
"inactive [at 17.4 µM]"
>>> observed("COC(=O)C1=COC(OC2OC(CO)C(O)C(O)C2O)C2C(COC(=O)/C=C/c3ccc(O)c(O)c3)C(O)C(O)C12 (configuration not stated)")
"inactive [at 17.4 µM]"
>>> observed("CC1(C)O[C@H]2CC(=O)OC[C@@]23C1=C(O)C(=O)[C@]1(C)C3CC[C@@]2(C)[C@H](c3ccoc3)OC(=O)[C@H]3O[C@]321 (some centres not stated)")
"inactive [at 17.4 µM]"
>>> observed("COc1ccc(C2COc3cc(O)ccc3C2)c(O)c1OC (configuration not stated)")
"inactive"
>>> observed("C[C@H]1CCN2C[C@]34C[C@@]5(C(=O)Nc6c5ccc5c6OC=CC(C)(C)O5)C(C)(C)C3C[C@]12C(=O)N4C (some centres not stated)")
"inactive [at 17.4 µM]"
>>> observed("COc1cc(O)c(C(=O)O)c(CCc2ccccc2)c1")
"inactive"
>>> observed("O=C(O)c1cc(C(F)(F)F)ccc1N1CC[C@H](OCc2ccccn2)C1")
"inactive"
>>> observed("O=C(O)C1(c2ccc(-c3ccc(Cl)c(Cl)c3)c(F)c2)CC1")
"inactive"
>>> observed("COC(=O)/C=C/c1ccc(O[C@@H]2O[C@H](CO)[C@@H](O)[C@H](O)[C@H]2O)cc1")
"inactive"
>>> observed("COc1ccc(C(=O)OC2C3C=COC(OC4OC(CO)C(O)C(O)C4O)C3C3(CO)OC23)cc1OC (configuration not stated)")
"inactive [at 17.4 µM]"
>>> observed("CC1(C)CC=C(C#Cc2ccccc2)c2cc(/C=C/c3ccc(C(=O)O)cc3)ccc21")
"inactive"
>>> observed("C=C[C@H]1[C@H](O[C@@H]2O[C@H](CO)[C@@H](O)[C@H](OC(=O)/C=C/c3ccc(O)c(OC)c3)[C@H]2O)OC=C2C(=O)OCC[C@]21O")
"inactive [at 17.4 µM]"

----------
# System: HEK293
# test-summary: Cytotoxic Profiling of Annotated Libraries Using Quantitative High-Throughput Screening (AID 1296008); note: % is set by controls: 0 for no effect and ±100 for the full control effect; nearly all actives have a fitted effect of over 60% in size
# conditions-used: Five cell lines viability, CellTiter-Glo ATP luminescence, 48-72 h; active compounds read low
Results filed as inconclusive are left out. Where a SMILES comes first, the peptide text is derived from it. [ ]: non-standard residue; d: D form. ξ: configuration not given here. ξTyr(βOH) = NC(C(=O)O)C(O)c1ccc(O)cc1
Here the recorded max response is given for each entry.
measured-endpoint: max response (%)

>>> observed("CC1(C)CC[C@]2(C(=O)O[C@@H]3O[C@H](CO)[C@@H](O)[C@H](O)[C@H]3O)CC[C@]3(C)C(=CCC4[C@@]5(C)C[C@H](O)[C@H](O[C@@H]6OC[C@@H](O)[C@H](O)[C@H]6O)[C@@](C)(CO)C5CC[C@]43C)C2C1 (stereo partly specified)")
-6.93
>>> observed("O=C(O)/C=C/c1ccc(O[C@@H]2O[C@H](CO)[C@@H](O)[C@H](O)[C@H]2O)cc1")
-0.219
>>> observed("C=CC(C)(O)CC/C=C(\\C)C(=O)O[C@@H]1[C@@H](O)[C@H](OC(C)(C=C)CC/C=C(\\C)C(=O)O)O[C@H](CO)[C@H]1OC(=O)/C(C)=C/CCC(C)(O)C=C (stereo partly specified)")
-0.372
>>> observed("O=C(/C=C/c1ccc(O)c(O)c1)O[C@@H]1[C@@H](O)[C@H](OC2CCCCC2O)O[C@H](CO)[C@H]1O (stereo partly specified)")
1.79
>>> observed("CN1CCc2cc(Cl)c(O)cc2[C@@H](c2cccc3c2OCC3)C1")
-11.4
>>> observed("CC(C)C1NC(=O)CNC(=O)C2CCCN2C(=O)C(Cc2c[nH]c3ccccc23)NC(=O)CNC(=O)C(C(O)c2ccc(O)cc2)NC(=O)CNC1=O (stereo unspecified) (cyclo(G[ξTyr(βOH)]GWPGV); configuration not given here)")
1.2
>>> observed("Nc1ncnc2c1ncn2[C@H]1O[C@@H](C(=O)N2CCN(CC(=O)Nc3cccc4c3CNC4=O)CC2)[C@H](O)[C@@H]1O")
1.78
>>> observed("CCC12CCCN3CCc4c(n(c5ccccc45)C(O)C1)C32 (stereo unspecified)")
-7.92
>>> observed("CC1(C)CC(NC(=O)C(=O)Nc2ccc(Cl)cc2)CC(C)(C)N1")
-2.65
>>> observed("C=C[C@H]1[C@H](O[C@@H]2O[C@H](CO)[C@@H](O)[C@H](O)[C@H]2O)OC=C(C(=O)OC)[C@H]1CC=O")
-0.876
>>> observed("Cc1cc(C)c2nc(-c3ccccn3)cc(C(=O)Nc3ccc(S(=O)(=O)Nc4onc(C)c4C)cc3)c2c1")
-20.7
>>> observed("O=C(c1ccc(Cl)c([N+](=O)[O-])c1)N1CCN(c2ccccc2F)CC1")
0.0452
>>> observed("CCC(C)/C=C(C)/C=C/C1=CC2=CC(=O)C(C)(O)C(OC(C)=O)C2CO1 (stereo unspecified)")
-22.7
>>> observed("C=CCC/C=C/C#CCCCCCCCC[C@H]1C(=O)O[C@H](C)[C@@H]1O")
-11.8
>>> observed("Cc1ccccc1-c1cc(N2CCN(C)CC2)ncc1N(C)C(=O)C(C)(C)c1cc(C(F)(F)F)cc(C(F)(F)F)c1")
-6.53
>>> observed("COc1cc(C)c(C(=O)NC2C(C)OC(OC3CCC(C)C4C3C=C(C)C3/C(C)=C\\CC/C(C)=C/C5(C)C=C(C(=O)O)C(C)CC56OC(=O)/C(=C(\\O)C34C)C6=O)C(O)C2(C)O)c(O)c1 (stereo unspecified)")
-0.938
>>> observed("CC1C2=CC(=O)OC2(O)CC2C1CCC1C(C)(C)CCC(O)C21C (stereo unspecified)")
-27.5
>>> observed("COc1cc(OC)cc(-c2ccc3c(-c4ccc(F)cc4)[nH]nc3n2)c1")
-28
>>> observed("CCC1OC(=O)C(C)CC(C)C(=O)/C(C)=C/C(C)C(=O)/C=C/C1(C)O (stereo unspecified)")
-3.54
>>> observed("NC1Nc2ccccc2C1(N)CC1NC(=O)C(Cc2ccccc2)NC(=O)C(Cc2ccccc2)NC1=O (stereo unspecified)")
-40.7
>>> observed("CC1C2=CC(=O)OC2(O)CC2C1C(O)CC1C(C)(CO)CCCC21C (stereo unspecified)")
2.57

----------
# test-summary: Primary fluorescence-based thiol-reactive (MSTI) qHTS assay for identification of artifact compounds. (AID 1845221); note: nearly all actives have a fitted effect of over 65% in size; note: potency is the fitted concentration of half-maximal effect
# conditions-used: MSTI thiol-reactivity probe, 1 h; series mostly up to 53.8 µM
Records with an inconclusive call do not appear. The source made the active and inactive calls. The call rests on the fitted dose curve; in most records, active means well fitted inhibition curve with a large enough effect; inconclusive means small, poorly fitted or top-dose-only effect; inactive means no such curve, though single readings can be large or run the other way. *1 amine or outer side, *2 acyl side, *3 side chain or, on linkers, in order; H or OH if unused. Where a SMILES comes first, the peptide text is derived from it. [ ]: non-standard residue; d: D form. The star is where a group is joined. X13 = O=C(C(CC(O)CO)O[*:1])[*:2]; NMeV = CN[CH](C(=O)O)C(C)C; Hexanoyl = CCCCCC(=O)*; NMeA = CN[CH](C)C(=O)O; βAla = NCCC(=O)O
measured-endpoint: Potency

>>> observed("CC(=O)O[C@@H]1[C@H](OC(C)=O)C[C@@]2(C)C(CC[C@@H](C)[C@]23Cc2c(O)cc4c(c2O3)CN([C@@H](CCC(=O)O)C(=O)O)C4=O)C1(C)C (stereo not given in full)")
"inactive"
>>> observed("CC[C@H]1OC(=O)[C@H](C)C(=O)[C@H](C)[C@@H](OC2O[C@H](C)C[C@H](N(C)C)[C@H]2O)[C@@H](C)C[C@@H](C)C(=O)/C=C/[C@]1(C)O (stereo not given in full)")
"inactive"
>>> observed("COc1ccc(CCC(=O)c2c(O)cc(O[C@@H]3O[C@H](CO)[C@@H](O)[C@H](O)[C@H]3O[C@@H]3O[C@@H](C)[C@H](O)[C@@H](O)[C@H]3O)cc2O)cc1O")
"inactive"
>>> observed("O=C(c1c2ccccc2cc2ccccc12)N1CCC(N2CCC[C@@H](C(=O)N3CCOCC3)C2)CC1")
"inactive"
>>> observed("COc1ccc([C@H]2OC[C@H]3[C@@H]2CO[C@@H]3c2ccc(O[C@@H]3O[C@H](CO)C(O)[C@H](O)[C@H]3O)c(OC)c2)cc1OC (stereo not given in full)")
"inactive"
>>> observed("C=C(C(=O)O)[C@@H]1CC[C@@]2(C)CCC[C@@](C)(O)[C@@H]2C1")
"inactive"
>>> observed("C/C(=C\\CCC1(C)C2CC3C(C2)C31C)C(=O)O (stereo not given)")
"inactive"
>>> observed("CC(C)C1CCC(CO)=CC1/C=C(\\CO)C(=O)OCC1(O)CCC(C(C)C)C2C=C(C(=O)O)COC(=O)C21 (stereo not given)")
"inactive"
>>> observed("C=C1CC/C=C(/CO)C(=O)C[C@@H]2[C@@H]1C[C@@]2(C)COC(C)=O")
"11.9 µM (active)"
>>> observed("N#Cc1ccc(C2CCCc3cncn32)cc1 (stereo not given)")
"inactive"
>>> observed("COc1ccc(/C=C/C(=O)N2CCCC2)cc1")
"inactive"
>>> observed("CCCC(C(=O)O)c1c(C)nc2ccc(Cl)cc2c1-c1ccccc1 (stereo not given)")
"inactive"
>>> observed("O=C(NC1Cc2ccccc2N(C[C@@H](O)CO)C1=O)c1cc2cc(Cl)sc2[nH]1 (stereo not given in full)")
"inactive"
>>> observed("C=CC(C)(CCC=C(C)C)O[C@@H]1O[C@H](CO)[C@@H](O)[C@H](O)[C@H]1O (stereo not given in full)")
"inactive"
>>> observed("CC12CC(c3ccoc3)OC(=O)C1CCC1(C)C2CCC(O)C1(C)O (stereo not given)")
"16.5 µM (active)"
>>> observed("O=C(O)C1(c2ccc(-c3ccc(Cl)c(Cl)c3)c(F)c2)CC1")
"inactive"
>>> observed("COC(=O)C1=CO[C@@H](O[C@@H]2O[C@H](CO)[C@@H](O)[C@H](O)[C@H]2O)[C@H]2[C@@H]1[C@H](O)[C@H](O)[C@]2(C)O")
"13 µM (active)"
>>> observed("COc1ccc(C2(O)c3c(ccc4c3OC(C)(CCC=C(C)C)C=C4)NC(=O)C2OC)cc1 (stereo not given)")
"inactive"
>>> observed("Cc1ncc([N+](=O)[O-])n1C[C@H](O)CN1CCOCC1")
"inactive"
>>> observed("OC[C@H]1O[C@@H](OCCc2ccccc2)[C@H](O[C@@H]2OC[C@@H](O)[C@H](O)[C@H]2O)[C@@H](O)[C@@H]1O")
"4.12 µM (active)"
>>> observed("CCCCCC(=O)N1CCC[C@H]1C(=O)N[C@@H](Cc1ccc(O)cc1)C(=O)OC (Hexanoyl-Pro-Tyr-OMe)")
"inactive"
>>> observed("CC(=O)OC(C)C(C)(O)C(=O)O[C@@H]1CC[C@]2(C)CC(=O)C(=C(C)C)C[C@H]2[C@]1(C)OC(C)=O (stereo not given in full)")
"inactive"
>>> observed("COc1cncc(C#Cc2ccccn2)c1")
"inactive"
>>> observed("CC(=O)N[C@H]1[C@H](O[C@H]2CC[C@]3(C)C4CC=C5[C@@H]6CC(C)(C)CC[C@]6(C(=O)O)[C@H](O)C[C@@]5(C)[C@]4(C)CC[C@H]3C2(C)C)O[C@H](CO)[C@@H](O)[C@@H]1O (stereo not given in full)")
"inactive"
>>> observed("O=C(CCCCC1CCCCC1)N1CCC(c2cnc[nH]2)CC1")
"inactive"
>>> observed("COC(=O)[C@]1(C)CCC[C@@]2(C)[C@@H]3CC[C@@H]4C[C@@]3(CC[C@@H]21)C[C@H]4C(=O)O")
"inactive"
>>> observed("CC1C2=CC(=O)OC2(O)CC2C1C(OC(=O)c1ccccc1)C(OC(=O)c1ccccc1)C1(O)C2(C)CCC(O)C1(C)C(=O)O (stereo not given)")
"inactive"
>>> observed("CC(C)=C1CC2C(CCC2(C)O)C(C)(O)CC1=O (stereo not given)")
"23.8 µM (active)"
>>> observed("CCC(C)C1NC(=O)C2CCCN2C(=O)C(CC(O)CO)OC(=O)CCNC(=O)C(C)N(C)C(=O)C(C(C)C)N(C)C1=O (stereo not given) (cyclo([X13]PI[NMeV][NMeA][βAla]); configuration not given here)")
"inactive"
>>> observed("C=C1CCC2C(C)(C)CC(O)CC2(C)C1CCC(C)CCOC(=O)CCC(=O)O (stereo not given)")
"inactive"
